Values compiled from patent US20110038869A1.

- target_desc: T1, biotinylated CD32bECDHis (human, UniProt P31994 43-223, limits assumed, biotinylated (sites not given))
- T1 sequence (looked up): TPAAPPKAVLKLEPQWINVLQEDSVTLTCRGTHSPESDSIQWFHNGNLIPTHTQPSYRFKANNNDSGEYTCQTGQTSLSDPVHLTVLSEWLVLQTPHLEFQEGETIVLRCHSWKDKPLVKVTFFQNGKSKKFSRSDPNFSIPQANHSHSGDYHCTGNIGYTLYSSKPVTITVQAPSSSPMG
- experimental_details: competition ELISA, competitor 063
- Method: ELISA wells were coated overnight at 4° C. with anti-CD32b HuMabs serially diluted in PBS. The ELISA wells were washed with PBS, blocked for one hour at room temperature with 2% (v/v) chicken serum (Gibco, Paisley, Scotland) in PBS and washed again with PBS. Subsequently, the immobilized antibodies were incubated with biotinylated CD32bECDHis serially diluted in PBSTC. […]

binder | % residual binding (%)
Antibody 024 (antibody, V domains shown, also called HuMab 024) VH: QVQLVQSGAEVKKPGASVKVSCKASGYTFTSYGLSWVRQAPGQGLEWMGWISPYNGNTHYAQKLQGRVTMTTDTSTSTAYMDLRSLRSDDTAVYYCARDSAAHGMDVWGQGTTVTVSS VL: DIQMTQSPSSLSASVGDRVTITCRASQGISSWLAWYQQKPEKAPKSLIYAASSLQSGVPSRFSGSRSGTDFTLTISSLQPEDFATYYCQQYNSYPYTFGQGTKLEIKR | 68
Antibody 063 (antibody, human IgG1, V domains shown, Human antibody; also called HuMab 063) VH: EVQLLESGGGLVQPGGSLRLSCAASGFTFSSYAMSWVRQAPGKGLEWVSAISDSGGSTYYADSVKGRFTISRDNSKNTLYLQMNSLRAEDTAAYYCAKEIAVALFDYWGQGTLVTVSS VL: EIVLTQSPATLSLSPGERATLSCRASQSVSSYLAWYQQKPGQAPRLLIYDASNRATGIPARFSGSGSGTDFTLTISSLEPEDFAVYYCQQRSSWPPYTFGQGTKLEIKR | 0
Antibody 022 (antibody, V domains shown, also called HuMab 022) VH: QVQLVQSGAEVKKPGASVKVSCKASGYTFTSYGLSWVRQAPGQGLEWMGWISPYNGNTHYAQKLQGRVTMTTDTSTSTADMDLRSLRSDDTAVYYCARASAAHGMDVWGQGTTVTVSS VL: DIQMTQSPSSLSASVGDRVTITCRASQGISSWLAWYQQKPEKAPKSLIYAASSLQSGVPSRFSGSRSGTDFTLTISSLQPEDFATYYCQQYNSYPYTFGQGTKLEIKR | 63
